Reference source for all entries: ChEMBL document CHEMBL4765247

- STUDY_TARGET: Sodium- and chloride-dependent GABA transporter 1 (Mus musculus)
- ASSAY_PROCEDURE: Displacement of [3H]NO711 from mouse GAT1 expressed in HEK293 cells measured after 40 mins of incubation by LC-ESI-MS-MS method
- Type: cell-based
- CONDITION_NOTES: in the assay text read “unlabelled NO711” for “[3H]NO711”
OBSERVED_PROPERTY: Ki (µM)
All answers are understood in µM, so give the number only.

Query block: Would you kindly share the measured Ki for Cc1ccsc1C(=CCCN(C)C(CCN)C(=O)NCc1ccccc1)c1sccc1C (stereo not given) ?
Result block: 24.5

Query block: Reported Ki for Cc1ccsc1C(=CCCN(C)C(CCN)C(=O)NCc1ccccc1Cl)c1sccc1C (stereo not given) : what is it?
Result block: 11.7

Query block: What Ki value was documented for this molecule, Cc1ccc(CNC(=O)C(CCN)N(C)CCC=C(c2sccc2C)c2sccc2C)cc1 (stereo not given) ?
Result block: 18.2

Query block: Any idea what its Ki is? The molecule is `Cc1ccsc1C(=CCCN(C)[C@H](CCO)C(=O)NCc1ccccc1Cl)c1sccc1C`
Result block: 25.7

Query block: Value lookup for Ki; key = `Cc1ccsc1C(=CCCN(C)[C@H](CO)C(=O)NCc1ccc(Cl)cc1)c1sccc1C`
Result block: 18.6
